The measured values listed here are drawn from ChEMBL document CHEMBL4251711.

IC50 values by entry
Target: Rho-associated protein kinase 2 (Homo sapiens, UniProt O75116)
Sequence (O75116 whole entry): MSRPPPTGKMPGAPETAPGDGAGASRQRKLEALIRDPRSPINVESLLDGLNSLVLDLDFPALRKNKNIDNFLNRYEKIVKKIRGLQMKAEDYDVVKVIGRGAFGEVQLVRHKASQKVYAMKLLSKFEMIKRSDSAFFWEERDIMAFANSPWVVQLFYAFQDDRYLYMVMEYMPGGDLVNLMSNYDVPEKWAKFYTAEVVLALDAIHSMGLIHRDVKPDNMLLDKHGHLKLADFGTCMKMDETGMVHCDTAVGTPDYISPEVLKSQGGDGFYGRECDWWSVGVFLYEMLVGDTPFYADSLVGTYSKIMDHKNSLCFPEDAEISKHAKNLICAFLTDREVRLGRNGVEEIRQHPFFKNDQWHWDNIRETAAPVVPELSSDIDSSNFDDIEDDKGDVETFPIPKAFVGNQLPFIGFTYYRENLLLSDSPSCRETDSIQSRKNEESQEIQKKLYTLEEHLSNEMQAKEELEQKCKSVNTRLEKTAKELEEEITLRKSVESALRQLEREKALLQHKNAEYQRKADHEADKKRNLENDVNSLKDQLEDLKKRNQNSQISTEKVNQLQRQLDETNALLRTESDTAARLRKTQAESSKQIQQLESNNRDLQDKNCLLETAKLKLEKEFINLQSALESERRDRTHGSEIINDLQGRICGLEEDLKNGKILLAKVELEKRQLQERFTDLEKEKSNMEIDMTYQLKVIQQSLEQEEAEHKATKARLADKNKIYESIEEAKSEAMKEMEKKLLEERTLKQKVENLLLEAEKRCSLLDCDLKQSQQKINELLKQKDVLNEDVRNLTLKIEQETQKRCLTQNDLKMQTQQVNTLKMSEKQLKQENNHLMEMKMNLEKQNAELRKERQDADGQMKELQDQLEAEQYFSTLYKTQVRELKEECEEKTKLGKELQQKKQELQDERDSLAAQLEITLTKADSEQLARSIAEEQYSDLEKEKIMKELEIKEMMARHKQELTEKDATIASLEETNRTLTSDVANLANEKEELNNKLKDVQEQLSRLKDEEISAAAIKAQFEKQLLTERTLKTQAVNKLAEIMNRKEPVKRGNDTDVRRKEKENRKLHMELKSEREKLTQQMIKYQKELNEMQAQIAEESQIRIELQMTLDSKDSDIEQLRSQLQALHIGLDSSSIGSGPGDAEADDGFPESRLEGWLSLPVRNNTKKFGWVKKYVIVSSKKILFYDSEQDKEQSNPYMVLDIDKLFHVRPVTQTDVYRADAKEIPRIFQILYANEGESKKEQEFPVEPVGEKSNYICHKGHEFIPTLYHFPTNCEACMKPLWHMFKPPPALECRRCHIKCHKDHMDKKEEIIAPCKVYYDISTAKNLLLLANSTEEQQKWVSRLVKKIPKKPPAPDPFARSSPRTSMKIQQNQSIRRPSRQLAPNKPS
property-name: IC50

In [3]: df
Out[3]:
                                   molecule  property_name  observed_value
0  C[C@@H]1O[C@@H]2C[C@](O)([C@H]1O)n1c3ccccc3c3c4c(c5c6cc(O)ccc6n2c5c31)C(=O)NC4           IC50          970 nM
1  COC1NC(=O)c2c1c1c3ccccc3[nH]c1c1[nH]c3ccc(O)cc3c21 (centres undefined)           IC50          910 nM
2  CC(=O)N[C@@H]1C[C@H](n2c3ccc(O)cc3c3c4c(c5c6ccccc6[nH]c5c32)CNC4=O)O[C@@H](C)[C@@H]1O           IC50           40 nM
3  C[C@H]1O[C@@H]2C[C@](O)([C@H]1O)n1c3ccccc3c3c4c(c5c6cc(O)ccc6n2c5c31)C(=O)NC4           IC50          340 nM

###

Target: Mitogen-activated protein kinase kinase kinase 5 (Homo sapiens)
Sequence (Q99683 whole entry): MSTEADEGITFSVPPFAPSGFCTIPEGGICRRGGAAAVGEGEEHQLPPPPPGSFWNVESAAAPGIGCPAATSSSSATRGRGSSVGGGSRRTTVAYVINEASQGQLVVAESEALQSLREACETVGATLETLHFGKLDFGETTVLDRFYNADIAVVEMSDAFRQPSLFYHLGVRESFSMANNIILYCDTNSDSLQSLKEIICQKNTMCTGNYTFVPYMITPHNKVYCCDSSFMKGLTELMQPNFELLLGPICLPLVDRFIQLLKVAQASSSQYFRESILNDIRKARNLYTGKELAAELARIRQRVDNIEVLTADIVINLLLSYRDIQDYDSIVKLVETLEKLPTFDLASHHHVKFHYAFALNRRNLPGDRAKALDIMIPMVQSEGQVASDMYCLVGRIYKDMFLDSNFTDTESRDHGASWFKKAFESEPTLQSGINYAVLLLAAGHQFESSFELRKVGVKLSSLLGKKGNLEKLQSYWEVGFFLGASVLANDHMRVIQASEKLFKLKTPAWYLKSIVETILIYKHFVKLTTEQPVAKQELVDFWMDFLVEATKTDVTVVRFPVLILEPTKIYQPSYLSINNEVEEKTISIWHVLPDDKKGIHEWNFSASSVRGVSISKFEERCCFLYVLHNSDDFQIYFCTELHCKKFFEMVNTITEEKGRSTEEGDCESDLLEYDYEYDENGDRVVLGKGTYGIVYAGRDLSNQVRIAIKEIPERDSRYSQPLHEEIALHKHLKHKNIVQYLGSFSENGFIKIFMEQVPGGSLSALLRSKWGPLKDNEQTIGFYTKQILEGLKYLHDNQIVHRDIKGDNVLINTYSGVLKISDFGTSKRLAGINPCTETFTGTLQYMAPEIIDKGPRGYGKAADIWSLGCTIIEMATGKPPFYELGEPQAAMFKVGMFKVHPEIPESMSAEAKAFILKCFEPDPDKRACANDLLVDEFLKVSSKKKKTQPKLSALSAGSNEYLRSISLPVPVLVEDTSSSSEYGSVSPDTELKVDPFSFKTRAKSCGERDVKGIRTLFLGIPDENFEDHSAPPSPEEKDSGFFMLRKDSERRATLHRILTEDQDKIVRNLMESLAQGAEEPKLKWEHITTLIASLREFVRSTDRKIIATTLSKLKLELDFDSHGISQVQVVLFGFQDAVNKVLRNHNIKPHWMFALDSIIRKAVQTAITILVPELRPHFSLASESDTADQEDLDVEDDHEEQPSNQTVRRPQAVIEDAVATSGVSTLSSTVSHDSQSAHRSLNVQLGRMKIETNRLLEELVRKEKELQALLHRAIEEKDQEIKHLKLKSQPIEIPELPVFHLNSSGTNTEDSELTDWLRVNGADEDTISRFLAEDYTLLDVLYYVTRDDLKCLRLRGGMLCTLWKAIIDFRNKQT
Assay: Inhibition of ASK1 (unknown origin) by HTRF assay
property-name: IC50 (µM)

>>> df
                                   compound                             system_tested  property_name  qualifier_sign  observed_value
0  CC(=O)N[C@@H]1C[C@H](n2c3ccccc3c3c4c(c5c6cc(O)ccc6[nH]c5c32)CNC4=O)O[C@@H](C)[C@@H]1O  Mitogen-activated protein kinase kinase kinase 5 (Homo sapiens)           IC50               >              50
1  COC1NC(=O)c2c1c1c3ccccc3[nH]c1c1[nH]c3ccc(O)cc3c21 (centres undefined)  Mitogen-activated protein kinase kinase kinase 5 (Homo sapiens)           IC50               >              50
2  O=C1NCc2c1c1c3cc(O)ccc3[nH]c1c1[nH]c3ccccc3c21  Mitogen-activated protein kinase kinase kinase 5 (Homo sapiens)           IC50               =               3
3  CC(=O)N[C@H]1C[C@H]2O[C@@](C)([C@@H]1O)n1c3ccccc3c3c4c(c5c6ccccc6n2c5c31)C(=O)NC4  Mitogen-activated protein kinase kinase kinase 5 (Homo sapiens)           IC50               =            0.77
4  C[C@@H]1O[C@@H](n2c3ccc(O)cc3c3c4c(c5c6ccccc6[nH]c5c32)CNC4=O)C[C@@H](N)[C@H]1O  Mitogen-activated protein kinase kinase kinase 5 (Homo sapiens)           IC50               =             1.1
5  C[C@H]1O[C@@H]2C[C@](O)([C@H]1O)n1c3ccccc3c3c4c(c5c6cc(O)ccc6n2c5c31)C(=O)NC4  Mitogen-activated protein kinase kinase kinase 5 (Homo sapiens)           IC50               >              50
6  C[C@@H]1O[C@@H]2C[C@](O)([C@H]1O)n1c3ccccc3c3c4c(c5c6cc(O)ccc6n2c5c31)C(=O)NC4  Mitogen-activated protein kinase kinase kinase 5 (Homo sapiens)           IC50               =             4.1
7  O=C1NCc2c1c1c3ccccc3[nH]c1c1[nH]c3ccc(O)cc3c21  Mitogen-activated protein kinase kinase kinase 5 (Homo sapiens)           IC50               =            0.74
8  CC(=O)N[C@@H]1C[C@H](n2c3ccc(O)cc3c3c4c(c5c6ccccc6[nH]c5c32)CNC4=O)O[C@@H](C)[C@@H]1O  Mitogen-activated protein kinase kinase kinase 5 (Homo sapiens)           IC50               =             6.4
